Target Or System: T1, recombinant CEACAM5 antigen (Sinobiological, 11077-H08H) (UniProt P06731 35-685)
T1 construct: Bought protein; also called CEACAM5-His recombinant protein; CEACAM5-His antigen; not shown: His tag
T1 sequence (looked up): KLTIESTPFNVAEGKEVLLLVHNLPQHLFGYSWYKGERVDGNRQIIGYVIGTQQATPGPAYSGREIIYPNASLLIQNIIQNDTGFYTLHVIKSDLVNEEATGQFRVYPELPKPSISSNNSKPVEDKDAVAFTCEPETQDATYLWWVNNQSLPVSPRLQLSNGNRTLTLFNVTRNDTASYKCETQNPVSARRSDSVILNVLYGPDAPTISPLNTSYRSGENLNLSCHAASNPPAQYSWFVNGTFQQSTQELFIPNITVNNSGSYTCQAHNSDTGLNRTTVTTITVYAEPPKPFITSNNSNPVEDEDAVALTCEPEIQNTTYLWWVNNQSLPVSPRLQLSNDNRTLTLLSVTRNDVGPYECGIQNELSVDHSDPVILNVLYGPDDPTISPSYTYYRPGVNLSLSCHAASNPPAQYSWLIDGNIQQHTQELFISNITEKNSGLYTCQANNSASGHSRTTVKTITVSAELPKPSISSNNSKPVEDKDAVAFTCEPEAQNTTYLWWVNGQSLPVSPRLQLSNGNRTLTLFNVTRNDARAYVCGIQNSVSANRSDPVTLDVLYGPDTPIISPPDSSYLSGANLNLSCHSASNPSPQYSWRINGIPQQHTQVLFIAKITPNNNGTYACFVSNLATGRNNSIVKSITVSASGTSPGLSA
Assay Notes: ELISA, coated recombinant CEACAM5-His 1 µg/ml, anti-human IgG Fc-HRP
Readout Type: EC50 (µg/mL)
Write the number in µg/mL without appending the unit.

Here are 3 binders together with their reported answers.
Binder	Assay Result
Humanized antibody hAb-003 (antibody, V domains shown, also called hM19-1) VH: EVQLVESGGGLVQPGGSLRLSCAASGFTFTDYFMNWVRQAPGKALEWVGQMRNKVNGDTTEYAESVEGRFTISRDDSKNSLYLQMNSLKTEDTAVYYCARDKGIAYYFDYWGQGTLVTVSS VL: DIQMTQSPSSLSASVGDRVTITCRASSSVSYIHWYQQKPGKSPKPLIYGTSNLASGVPSRFSGSGSGTDFTLTISSLQPEDAATYYCQQWSSNLSTFGQGTKLEIK	3.69
Humanized antibody hAb-006 (antibody, V domains shown, also called hM19-4) VH: EVQLVESGGGLVQPGGSLRLSCAASGFTFTDYYMNWVRQAPGKGLEWLGFIRNKVNGDTTEYSASVKGRFTISRDISKNSLYLQMNSLKTEDTAVYYCARDKGIAYYFDYWGQGTLVTVSS VL: DIVLSQSPGTLSLSPGERATLSCRASSSVSYIHWYQQKPGQAPRPWIHGTSNLASGIPDRFSGSGSGTDYTLTISRLEPEDFAVYYCQQWSSNLSTFGGGTKVEIK	3.11
Humanized antibody hAb-013 (antibody, V domains shown, also called hM19-11) VH: EVQLVESGGGLVQPGGSLRLSCAASGFTFTDYYMDWVRQAPGKALEWVGFTRNKVNGDTTEYAASVKGRFTISRDDSKNSLYLQMNSLKTEDTAVYYCARDKGIAYYFDYWGQGTLVTVSS VL: QIVLTQSPATLSASPGERATLSCRASSSVSYIHWYQQKPGQSPRPLIYGTSNLASGVPARFSGSGSGTDFTLTISSLEPEDAAVYYCQQWSSNLSTFGGGTKVEIK	6.1

Sample Humanized antibody hAb-010 (antibody, V domains shown, also called hM19-8) VH: EVQLVESGGGLVQPGGSLRLSCAASGFTFTDYYMDWVRQAPGKALEWVGFIRNKVNGDTTEYAASVKGRFTISRDDSKNSLYLQMNSLKTEDTAVYYCARDKGIAYYFDYWGQGTLVTVSS VL: EIVLTQSPATLSASPGERATLSCRASSSVSYIHWYQQKPGQSPRPLIYGTSNRATGVPARFSGSGSGTDFTLTISSLEPEDAAVYYCQQWSSNLSTFGGGTKVEIK — what was its EC50?
3.56
